Measured Ki values are reported for all entries that follow.
Measured on: human MC4R (Homo sapiens, UniProt P32245)
Construct: expressed in transfected cells
Sequence (P32245 whole entry): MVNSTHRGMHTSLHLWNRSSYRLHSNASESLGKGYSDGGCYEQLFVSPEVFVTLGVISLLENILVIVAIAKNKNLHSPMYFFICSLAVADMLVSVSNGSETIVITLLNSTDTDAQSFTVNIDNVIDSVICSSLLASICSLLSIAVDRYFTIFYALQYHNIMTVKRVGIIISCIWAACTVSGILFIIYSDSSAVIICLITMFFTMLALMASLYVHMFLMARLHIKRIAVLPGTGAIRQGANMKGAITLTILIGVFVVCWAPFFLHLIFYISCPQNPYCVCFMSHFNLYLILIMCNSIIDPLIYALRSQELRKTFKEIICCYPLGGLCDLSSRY
Assay summary: 125NDP-α-MSH competitive binding to membranes of BHK cells expressing human MC4 receptor (filtration assay)
Condition parameters: human MC4R, BHK cell membranes, 125NDP-α-MSH radioligand; read-out: MC4R binding Ki
Method: In Vitro ^125NDP-α-MSH Binding to Recombinant BHK Cells Expressing Human MC4 Receptor (Filtration Assay) […] The BHK cell membranes were prepared from frozen or fresh cells that were homogenized in 20 mM HEPES pH 7.1, 5 mM MgCl2, 1 mg/ml bacitracin (buffer 1) and centrifuged at 15000 rpm at 4° C., 10 min in a Sorvall RC 5B plus, SS-34 rotor. […] The radioactivity retained on the filters was counted using a Packard Topcounter. […]
Positions of bridges follow the written chain, without caps; N, C: chain ends. Non-standard residues stand in square brackets, D forms with d. Residues, ends and D or L forms follow the SMILES beside them. 1Nal = N[C@@H](Cc1cccc2ccccc12)C(=O)O; Dab = NCC[C@H](N)C(=O)O; Aib = CC(C)(N)C(=O)O
I only need the number, in nM, no unit after it.

CC1(C)NC(=O)[C@@H]2CSSC[C@H](NC(=O)[C@H](Cc3c[nH]c4ccccc34)NC(=O)[C@H](CCN)NC(=O)[C@@H](Cc3ccccc3)NC(=O)[C@H](Cc3c[nH]cn3)NC1=O)C(=O)NC(C)(C)C(=O)N[C@@H](Cc1c[nH]cn1)C(=O)N[C@H](Cc1ccccc1)C(=O)N[C@@H](CCN)C(=O)N[C@@H](Cc1c[nH]c3ccccc13)C(=O)N2 [Chem. 46] (cyclo([Aib]H[dF][Dab]WC[Aib]H[dF][Dab]WC); disulfide 6-12) = 7.86

Please look up its Ki: C[C@@H]1NC(=O)[C@@H]2CSSC[C@H](NC(=O)[C@H](Cc3cccc4ccccc34)NC(=O)[C@H](CCCNC(=N)N)NC(=O)[C@@H](Cc3ccccc3)NC(=O)[C@H](Cc3c[nH]cn3)NC1=O)C(=O)N[C@@H](C)C(=O)N[C@@H](CCCCN)C(=O)N[C@@H](CCCCN)C(=O)N[C@@H](CCCCN)C(=O)N[C@@H](Cc1c[nH]c3ccccc13)C(=O)N2 [Chem. 64] (cyclo([1Nal]CAKKKWCAH[dF]R); disulfide 2-8)
0.09

---

Measured on: human MC1R (Homo sapiens, UniProt Q01726)
Construct: expressed in transfected cells
Sequence (Q01726 whole entry): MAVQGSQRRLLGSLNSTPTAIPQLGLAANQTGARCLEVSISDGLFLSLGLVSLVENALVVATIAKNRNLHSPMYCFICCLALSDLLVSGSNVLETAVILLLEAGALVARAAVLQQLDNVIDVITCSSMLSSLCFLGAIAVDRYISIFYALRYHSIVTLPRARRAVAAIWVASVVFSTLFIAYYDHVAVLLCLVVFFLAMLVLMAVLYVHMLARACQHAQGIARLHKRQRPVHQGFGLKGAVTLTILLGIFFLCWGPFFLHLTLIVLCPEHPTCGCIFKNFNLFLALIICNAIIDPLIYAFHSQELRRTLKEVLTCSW
Assay summary: Functional cAMP assay (CisBio HTRF) in BHK cells expressing human MC1R
Assay type: cell-based
Positions of bridges follow the written chain, without caps; N, C: chain ends. Non-standard residues stand in square brackets, D forms with d. Residues, ends and D or L forms follow the SMILES beside them.
Experimental readout: EC50 (nM)
I only need the number, in nM, no unit after it.

Look over these answered cases.
C[C@@H]1NC(=O)[C@@H]2CSSC[C@H](NC(=O)[C@H](Cc3c[nH]c4ccccc34)NC(=O)[C@H](CCCNC(=N)N)NC(=O)[C@@H](Cc3ccccc3)NC(=O)[C@H](Cc3c[nH]cn3)NC1=O)C(=O)N[C@@H](C)C(=O)N[C@@H](Cc1c[nH]cn1)C(=O)N[C@H](Cc1ccccc1)C(=O)N[C@@H](CCCNC(=N)N)C(=O)N[C@@H](Cc1c[nH]c3ccccc13)C(=O)N2 = 0.31
C[C@@H]1NC(=O)[C@H](C)NC(=O)[C@H](C)NC(=O)[C@@H]2CSSC[C@H](NC(=O)[C@H](Cc3c[nH]c4ccccc34)NC(=O)[C@H](C)NC1=O)C(=O)N[C@@H](C)C(=O)N[C@@H](Cc1c[nH]cn1)C(=O)N[C@H](Cc1ccccc1)C(=O)N[C@@H](CCCNC(=N)N)C(=O)N[C@@H](Cc1c[nH]c3ccccc13)C(=O)N2 [Chem. 87] (cyclo(AAAAWCAH[dF]RWC); disulfide 6-12) = 1.39
C[C@@H]1NC(=O)[C@@H]2CSSC[C@H](NC(=O)[C@H](Cc3c[nH]c4ccccc34)NC(=O)[C@H](CCCNC(=N)N)NC(=O)[C@@H](Cc3ccccc3)NC(=O)[C@H](Cc3c[nH]cn3)NC1=O)C(=O)N[C@@H](CCCNC(=N)N)C(=O)N[C@@H](Cc1ccccc1)C(=O)N[C@@H](Cc1ccccc1)C(=O)N[C@@H](CC(N)=O)C(=O)N[C@@H](C)C(=O)N[C@@H](Cc1ccccc1)C(=O)N2 [Chem. 13] (cyclo(AFCAH[dF]RWCRFFN); disulfide 3-9) = 6.36

Now consider a different molecule.
Lab note: need EC50 with human MC1R (Homo sapiens, UniProt Q01726) for entry C[C@@H]1NC(=O)[C@H](C)NC(=O)[C@@H]2CSSC[C@H](NC(=O)[C@H](Cc3c[nH]c4ccccc34)NC(=O)[C@H](C)NC(=O)[C@@H](C)NC1=O)C(=O)N[C@@H](C)C(=O)N[C@@H](Cc1c[nH]cn1)C(=O)N[C@H](Cc1ccccc1)C(=O)N[C@@H](CCCNC(=N)N)C(=O)N[C@@H](Cc1c[nH]c3ccccc13)C(=O)N2 [Chem. 88] (cyclo(AA[dA]AWCAH[dF]RWC); disulfide 6-12) , please look it up.
1.31

---

Measured MC1R/MC4R cAMP EC50 ratio values are reported for all entries that follow.
Measured on: human MC4R (Homo sapiens, UniProt P32245)
Construct: expressed in transfected cells
Assay summary: Functional cAMP assay (CisBio HTRF) in BHK cells expressing human MC4R
Assay type: cell-based
Condition parameters: MC1R cAMP EC50 divided by MC4R cAMP EC50
Starred links: 1 amine or outer side, 2 acyl side, 3 side chain; linkers in the order of their positions; H or OH if unused. Positions of bridges follow the written chain, without caps; N, C: chain ends. Non-standard residues stand in square brackets, D forms with d. Residues, ends and D or L forms follow the SMILES beside them. Phe(3,4-Cl2) = N[C@@H](Cc1ccc(Cl)c(Cl)c1)C(=O)O; Pen = CC(C)(S)[C@H](N)C(=O)O; d(hCys) = N[C@H](CCS)C(=O)O; Orn = NCCC[C@H](N)C(=O)O; Thz = O=C(O)[C@@H]1CSCN1; X1 = C(CN[*:2])CS[*:1]
The answer should be a number; do not append a unit.

C[C@@H]1NC(=O)[C@@H]2CSSC[C@H](NC(=O)[C@H](CCCNC(=N)N)NC(=O)[C@H](CCCNC(=N)N)NC(=O)[C@H](CCC(=O)O)NC(=O)[C@H](CCCNC(=N)N)NC1=O)C(=O)N1CSC[C@H]1C(=O)N[C@@H](Cc1c[nH]cn1)C(=O)N[C@H](Cc1ccccc1)C(=O)N[C@@H](Cc1c[nH]cn1)C(=O)N[C@@H](Cc1c[nH]c3ccccc13)C(=O)N2 [Chem. 113] (cyclo(ARERRC[Thz]H[dF]HWC); disulfide 6-12) = 2112

Please look up its MC1R/MC4R cAMP EC50 ratio: C[C@@H]1NC(=O)[C@@H]2CSSC[C@H](NC(=O)[C@H](Cc3c[nH]c4ccccc34)NC(=O)[C@H](CCCCN)NC(=O)[C@H](CCCCN)NC(=O)[C@H](CCCCN)NC1=O)C(=O)N[C@@H](CCCCN)C(=O)N[C@@H](Cc1c[nH]cn1)C(=O)N[C@H](Cc1ccccc1)C(=O)N[C@@H](Cc1c[nH]cn1)C(=O)N[C@@H](Cc1c[nH]c3ccccc13)C(=O)N2 [Chem. 76] (cyclo(AKKKWCKH[dF]HWC); disulfide 6-12)
136

Please look up its MC1R/MC4R cAMP EC50 ratio: C[C@@H]1NC(=O)[C@@H]2CSSC[C@H](NC(=O)[C@H](Cc3ccc(Cl)c(Cl)c3)NC(=O)[C@H](CCCNC(=N)N)NC(=O)[C@@H](Cc3ccccc3)NC(=O)[C@H](Cc3c[nH]cn3)NC1=O)C(=O)N[C@@H](C)C(=O)N[C@@H](CCCCN)C(=O)N[C@@H](CCCCN)C(=O)N[C@@H](CCCCN)C(=O)N[C@@H](Cc1c[nH]c3ccccc13)C(=O)N2 [Chem. 66] (cyclo(AH[dF]R[Phe(3,4-Cl2)]CAKKKWC); disulfide 6-12)
22

Please look up its MC1R/MC4R cAMP EC50 ratio: C[C@@H]1NC(=O)[C@@H]2CSSC[C@H](NC(=O)[C@H](CCCNC(=N)N)NC(=O)[C@H](CCCCN)NC(=O)[C@H](CCCCN)NC(=O)[C@H](CCCCN)NC1=O)C(=O)N[C@@H](CCCCN)C(=O)N[C@@H](Cc1c[nH]cn1)C(=O)N[C@H](Cc1ccccc1)C(=O)N[C@@H](Cc1c[nH]cn1)C(=O)N[C@@H](Cc1c[nH]c3ccccc13)C(=O)N2 [Chem. 78] (cyclo(AKKKRCKH[dF]HWC); disulfide 6-12)
95

Please look up its MC1R/MC4R cAMP EC50 ratio: C[C@@H]1NC(=O)[C@@H]2CSSC[C@H](NC(=O)[C@H](CCCNC(=N)N)NC(=O)[C@H](CCCCN)NC(=O)[C@H](CCCCN)NC(=O)[C@H](CCCCN)NC1=O)C(=O)N1CSC[C@H]1C(=O)N[C@@H](Cc1c[nH]cn1)C(=O)N[C@H](Cc1ccccc1)C(=O)N[C@@H](Cc1c[nH]cn1)C(=O)N[C@@H](Cc1c[nH]c3ccccc13)C(=O)N2 [Chem. 100] (cyclo(AKKKRC[Thz]H[dF]HWC); disulfide 6-12)
925

Please look up its MC1R/MC4R cAMP EC50 ratio: C[C@@H]1NC(=O)[C@H](CCC(=O)O)NC(=O)[C@H](CCC(=O)O)NC(=O)[C@H](C)NC(=O)[C@@H]2CSSC[C@H](NC(=O)[C@H](Cc3c[nH]c4ccccc34)NC1=O)C(=O)N[C@@H](C)C(=O)N[C@@H](Cc1c[nH]cn1)C(=O)N[C@H](Cc1ccccc1)C(=O)N[C@@H](CCCNC(=N)N)C(=O)N[C@@H](Cc1c[nH]c3ccccc13)C(=O)N2 [Chem. 102] (cyclo(AEEAWCAH[dF]RWC); disulfide 6-12)
29

Please look up its MC1R/MC4R cAMP EC50 ratio: C[C@@H]1NC(=O)[C@@H]2CSSC(C)(C)[C@H](NC(=O)[C@H](CCCNC(=N)N)NC(=O)[C@H](CCCCN)NC(=O)[C@H](CCCCN)NC(=O)[C@H](CCCCN)NC1=O)C(=O)N1CCC[C@H]1C(=O)N[C@@H](Cc1c[nH]cn1)C(=O)N[C@H](Cc1ccccc1)C(=O)N[C@@H](Cc1c[nH]cn1)C(=O)N[C@@H](Cc1c[nH]c3ccccc13)C(=O)N2 [Chem. 92] (cyclo(AKKKR[Pen]PH[dF]HWC); disulfide 6-12)
362

Please look up its MC1R/MC4R cAMP EC50 ratio: C[C@@H]1NC(=O)[C@@H]2CSSC[C@H](NC(=O)[C@H](CCCNC(=N)N)NC(=O)[C@H](CCCN)NC(=O)[C@H](CCC(=O)O)NC(=O)[C@H](Cc3c[nH]cn3)NC1=O)C(=O)N1CSC[C@H]1C(=O)N[C@@H](Cc1c[nH]cn1)C(=O)N[C@H](Cc1ccccc1)C(=O)N[C@@H](Cc1c[nH]cn1)C(=O)N[C@@H](Cc1c[nH]c3ccccc13)C(=O)N2 [Chem. 120] (cyclo(AHE[Orn]RC[Thz]H[dF]HWC); disulfide 6-12)
3673

Please look up its MC1R/MC4R cAMP EC50 ratio: C[C@@H]1NC(=O)[C@@H]2CSSC[C@H](NC(=O)[C@H](CCCNC(=N)N)NC(=O)[C@H](Cc3c[nH]cn3)NC(=O)[C@H](CCCCN)NC(=O)[C@H](CCCCN)NC1=O)C(=O)N1CCC[C@H]1C(=O)N[C@@H](Cc1c[nH]cn1)C(=O)N[C@H](Cc1ccccc1)C(=O)N[C@@H](Cc1c[nH]cn1)C(=O)N[C@@H](Cc1c[nH]c3ccccc13)C(=O)N2 [Chem. 95] (cyclo(AKKHRCPH[dF]HWC); disulfide 6-12)
399

Please look up its MC1R/MC4R cAMP EC50 ratio: CC(=O)N[C@@H](Cc1c[nH]cn1)C(=O)N[C@H](Cc1ccccc1)C(=O)N[C@@H](CCCNC(=N)N)C(=O)N[C@@H](Cc1c[nH]c2ccccc12)C(=O)NCC(=O)N[C@@H]1CCSSCCCNC(=O)CNC(=O)[C@H](Cc2c[nH]c3ccccc23)NC(=O)[C@H](CCCNC(=N)N)NC(=O)[C@@H](Cc2ccccc2)NC(=O)[C@H](Cc2c[nH]cn2)NC1=O [Chem. 4] (Ac-H[dF]RWG[d(hCys)]H[dF]RWG; linker 6-C via X1)
7
